Test system: NCI-H226 lung
method: NCI-60 one-dose screen, 48 h
setup_conditions: 10 µM unless noted
This is part of a sample that, as a whole, favours compounds with a hit. Of some 83,000 tested, about 20% had one in any assay. The source made the active and inactive calls. Rule for the calls: active = growth percent below 10; inactive = the rest.
Permitted responses: active, inactive

Ask: Check the results log: what was the call for CCOCCNC1=C(Cl)C(=O)c2ccccc2C1=O ?
Reply: inactive

Ask: Check the results log: what was the call for O=C(CSc1oc(-c2ccccc2)nc1S(=O)(=O)c1ccccc1)Nc1ccc(F)cc1 ?
Reply: inactive

Ask: Check the results log: what was the call for O=C(Cn1cc(CSc2nc3ccccc3o2)nn1)Nc1ccc(F)cc1F ?
Reply: inactive

Ask: Check the results log: what was the call for CCN1CCN(C(=O)[C@]23CCC(C)(C)C[C@@H]2C2=CC[C@@H]4[C@@]5(C)CCC(=O)C(C)(C)[C@@H]5CC[C@@]4(C)[C@]2(C)CC3)CC1 ?
Reply: inactive

Ask: Check the results log: what was the call for C1CCC([PH+](C2CCCCC2)C2CCCCC2[PH+](C2CCCCC2)C2CCCCC2)CC1.[Au].[CH-]1CCCCC1C1CCCC[N-]1 (stereo not given) ?
Reply: active

Ask: Check the results log: what was the call for C[C@@H](CO)[C@@H]1CCC=C2CC[C@]3(C)[C@H](CC[C@@H]4[C@@]5(C)CCCNC(C)(C)[C@@H]5CC[C@]43C)[C@H]21 ?
Reply: inactive

Ask: Check the results log: what was the call for O=C1NC(=C(Cl)Cl)/C(=N\S(=O)(=O)NCc2ccccc2)N1 ?
Reply: inactive

Ask: Check the results log: what was the call for C=CCn1c(C)nc2ccc(Nc3nc(Nc4ccc5nc(C)n(CC=C)c5c4)c4ccccc4n3)cc21 ?
Reply: inactive

Ask: Check the results log: what was the call for CCN(CC)CCn1c2ccc(OC)cc2c2sc3cc(OC)ccc3c(=O)c21 ?
Reply: inactive

Ask: Check the results log: what was the call for O=C1C(=O)N(Cc2ccc(-c3ccccc3)cc2)c2ccc(OC(F)(F)F)cc21 ?
Reply: inactive

Ask: Check the results log: what was the call for COc1ccc(/C=C/C(=O)c2ccc(Nc3ccnc4cc(Cl)ccc34)cc2)cc1 ?
Reply: inactive

Ask: Check the results log: what was the call for Cc1ccc(NC(=O)c2sc3nc(C)c(Br)c(C)c3c2N)cc1 ?
Reply: inactive

Ask: Check the results log: what was the call for N#Cc1nc(-c2ccc(Cl)cc2)oc1S(=O)(=O)N1CCN(c2ccc(F)cc2)CC1 ?
Reply: inactive

Ask: Check the results log: what was the call for CC(=O)c1c(C)nc(SCC(=O)Nc2cccc(O)c2)n1-c1ccc(Cl)cc1 ?
Reply: inactive

Ask: Check the results log: what was the call for NC(=O)C(=O)c1ccccc1NC=O ?
Reply: inactive

Ask: Check the results log: what was the call for N#CC(C#N)N=Nc1ccc(Br)cc1 ?
Reply: inactive

Ask: Check the results log: what was the call for O=C(Nc1cccc(Cl)c1)Nc1cccc(Cn2c(=O)[nH]c3ccc(Oc4ncccn4)cc3c2=O)c1 ?
Reply: inactive

Ask: Check the results log: what was the call for COc1ccc(Cc2cnc(NC(=O)c3cc(C)oc3C)s2)cc1 ?
Reply: inactive

Ask: Check the results log: what was the call for O=CN1N=C(c2cccc(Nc3ccnc4cc(Cl)ccc34)c2)CC1c1ccccc1 (stereo not given) ?
Reply: inactive

Ask: Check the results log: what was the call for Cc1cc(N2CCN(CCNc3ccnc4cc(Cl)ccc34)CC2)nc(N2CCOCC2)n1 ?
Reply: inactive

Hello, the source for this data is PubChem BioAssay (NCI), in case you need it.
